Source: ChEMBL document CHEMBL5055671

# System: GTPase KRas (Homo sapiens), P01116 [G12V]
# protocol: Inhibition of alexa fluor 647-labeled kinase tracer 314 binding to biotinylated-KRAS G12V mutant (unknown origin) at 100 uM measured after 60 mins by HTRF competition binding assay
readout.kind: inhibition (%)
Give bare numbers, in %.

Recorded inhibition, per entry:
CC[C@H](C)[C@@H]1NC(=O)[C@@H]2CCCN2C(=O)CNC(=O)CCCc2cnnn2C[C@@H](C(=O)N[C@@H](CC(C)C)C(N)=O)NC1=O
16
CC[C@H](C)[C@@H]1NC(=O)[C@@H]2CCCN2C(=O)CNC(=O)CCCc2cn(nn2)CC[C@@H](C(=O)N[C@@H](CC(C)C)C(N)=O)NC1=O
6
CC[C@H](C)[C@@H]1NC(=O)[C@@H]2CCCN2C(=O)[C@H](Cc2ccc(O)cc2)NC(=O)CCCCn2nncc2COC[C@@H](C(=O)N[C@@H](CC(C)C)C(N)=O)NC1=O
28
CC[C@H](C)[C@@H]1NC(=O)[C@@H]2CCCN2C(=O)CNC(=O)CCCc2cnnn2CC[C@@H](C(=O)N[C@@H](CC(C)C)C(N)=O)NC1=O
22
CC[C@H](C)[C@@H]1NC(=O)[C@@H]2CCCN2C(=O)[C@H](Cc2ccc(O)cc2)NC(=O)CCCCn2nncc2CSC[C@@H](C(=O)N[C@@H](CC(C)C)C(N)=O)NC1=O
20

With those in mind, consider the next compound.
Any idea what inhibition was measured for CC[C@H](C)[C@@H]1NC(=O)[C@@H]2CCCN2C(=O)[C@H](Cc2ccc(O)cc2)NC(=O)CCCCn2cc(nn2)COC[C@@H](C(=O)N[C@@H](CC(C)C)C(N)=O)NC1=O ?
22

====

Please respond with reported pIC50 for every item in the list.
# study.system: GTPase KRas (Homo sapiens, UniProt P01116, G12V)
# protocol: Inhibition of alexa fluor 647-labeled kinase tracer 314 binding to biotinylated-KRAS G12V mutant (unknown origin) measured after 60 mins by HTRF competition binding assay
# details: read-out: IC50
Answers are plain numbers, as −log10 of the molar value.

Recorded pIC50, per entry:
C[C@H](NC(=O)[C@@H]1COCc2cnnn2CCCCC(=O)NCC(=O)N2CCC[C@H]2C(=O)N[C@@H](Cc2cccc3ccccc23)C(=O)N1)C(N)=O
4.43
CC(C)C[C@H](NC(=O)[C@@H]1COCc2cnnn2CCCCC(=O)NCC(=O)N2CC[C@H]2C(=O)N[C@@H](Cc2cccc3ccccc23)C(=O)N1)C(N)=O
4.49
CC(C)C[C@H](NC(=O)[C@@H]1COCc2cnnn2CCCCC(=O)N2CCC[C@H]2C(=O)N[C@@H](Cc2cccc3ccccc23)C(=O)N1)C(N)=O
4.32

Would you be so kind as to report pIC50 for each listed record?
1. CC(C)C[C@@H](C(N)=O)N(C)C(=O)[C@@H]1COCc2cnnn2CCCCC(=O)NCC(=O)N2CCC[C@H]2C(=O)N[C@@H](Cc2cccc3ccccc23)C(=O)N1
2. CC(C)C[C@H](NC(=O)[C@@H]1COCc2cnnn2CCCCC(=O)N[C@@H](CC(=O)O)C(=O)N2CCC[C@H]2C(=O)N[C@@H](Cc2cccc3ccccc23)C(=O)N1)C(N)=O
3. CC(C)C[C@H](NC(=O)[C@@H]1COCc2cnnn2CCCCC(=O)NCC(=O)N2CCC[C@H]2C(=O)N[C@@H](Cc2c[nH]c3ccccc23)C(=O)N1)C(N)=O

1. 4.59
2. 4.18
3. 4.74
